// data source = PubChem BioAssay (NCI)

# Tested on: SF-539 CNS
# measurement.protocol: NCI-60 one-dose screen, 48 h
# condition.notes: 10 µM unless noted
Compounds without any hit were thinned out: in the full panel of roughly 83,000, 20% have a hit. Active and inactive are the calls of the source. How the source made its calls: active means growth percent below 10; inactive means the rest.
Classes to choose from: active, inactive

Worked examples, 3 compounds total:
>>> classification("COc1c(F)ccc(C(=O)Nc2ccc3nc(NC(=O)C4CCCN(S(=O)(=O)c5cccc(Cl)c5)C4)sc3c2)c1F (centres undefined)")
"inactive"
>>> classification("N/C(=N\\c1nc2ccccc2s1)NC(=O)Nc1ccc(Cl)cc1Cl")
"active"
>>> classification("CN1CCc2c(sc3ncnc(N/N=C/c4ccc(Cl)cc4Cl)c23)C1")
"active"

Please look at the following compound next.
Request: Per the assay record, what outcome was assigned to `CCN1CCN(Cc2ccc(C(=O)Nc3cccc(C#Cc4cccc5[nH]nc(N)c45)c3)cc2C(F)(F)F)CC1` ?
Response: active
